Target: αvβ6 (Homo sapiens, UniProt P06756+P18564)
Construct: purchased R&D System (Minneapolis, Minn.)
Sequence (P06756 31-889 limits assumed): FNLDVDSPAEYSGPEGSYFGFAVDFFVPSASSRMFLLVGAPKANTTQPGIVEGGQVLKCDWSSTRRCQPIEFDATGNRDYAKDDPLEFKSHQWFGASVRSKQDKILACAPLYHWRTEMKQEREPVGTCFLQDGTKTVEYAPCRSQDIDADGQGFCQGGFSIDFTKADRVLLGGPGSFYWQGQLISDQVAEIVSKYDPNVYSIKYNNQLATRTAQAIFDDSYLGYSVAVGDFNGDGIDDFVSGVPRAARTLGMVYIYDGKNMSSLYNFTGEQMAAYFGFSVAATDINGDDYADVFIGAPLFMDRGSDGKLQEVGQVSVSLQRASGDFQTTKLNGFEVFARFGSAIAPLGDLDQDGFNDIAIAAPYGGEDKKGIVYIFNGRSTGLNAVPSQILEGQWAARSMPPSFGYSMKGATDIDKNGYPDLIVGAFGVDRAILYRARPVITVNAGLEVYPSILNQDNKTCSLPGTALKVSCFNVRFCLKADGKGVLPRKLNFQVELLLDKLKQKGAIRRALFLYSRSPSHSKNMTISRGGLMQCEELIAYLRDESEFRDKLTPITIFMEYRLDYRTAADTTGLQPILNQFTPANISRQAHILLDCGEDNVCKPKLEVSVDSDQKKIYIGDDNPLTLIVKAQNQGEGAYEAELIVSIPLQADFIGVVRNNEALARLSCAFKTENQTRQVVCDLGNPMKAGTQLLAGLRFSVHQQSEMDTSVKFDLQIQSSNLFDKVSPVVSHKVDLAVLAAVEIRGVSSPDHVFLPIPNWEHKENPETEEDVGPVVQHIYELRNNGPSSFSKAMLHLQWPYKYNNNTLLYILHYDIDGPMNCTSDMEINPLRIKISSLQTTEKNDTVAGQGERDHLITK
Sequence (P06756 891-992 partner limits assumed): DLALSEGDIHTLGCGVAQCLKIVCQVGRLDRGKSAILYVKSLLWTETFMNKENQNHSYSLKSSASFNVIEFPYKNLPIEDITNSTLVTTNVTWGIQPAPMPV
Sequence (P18564 22-707 limits assumed): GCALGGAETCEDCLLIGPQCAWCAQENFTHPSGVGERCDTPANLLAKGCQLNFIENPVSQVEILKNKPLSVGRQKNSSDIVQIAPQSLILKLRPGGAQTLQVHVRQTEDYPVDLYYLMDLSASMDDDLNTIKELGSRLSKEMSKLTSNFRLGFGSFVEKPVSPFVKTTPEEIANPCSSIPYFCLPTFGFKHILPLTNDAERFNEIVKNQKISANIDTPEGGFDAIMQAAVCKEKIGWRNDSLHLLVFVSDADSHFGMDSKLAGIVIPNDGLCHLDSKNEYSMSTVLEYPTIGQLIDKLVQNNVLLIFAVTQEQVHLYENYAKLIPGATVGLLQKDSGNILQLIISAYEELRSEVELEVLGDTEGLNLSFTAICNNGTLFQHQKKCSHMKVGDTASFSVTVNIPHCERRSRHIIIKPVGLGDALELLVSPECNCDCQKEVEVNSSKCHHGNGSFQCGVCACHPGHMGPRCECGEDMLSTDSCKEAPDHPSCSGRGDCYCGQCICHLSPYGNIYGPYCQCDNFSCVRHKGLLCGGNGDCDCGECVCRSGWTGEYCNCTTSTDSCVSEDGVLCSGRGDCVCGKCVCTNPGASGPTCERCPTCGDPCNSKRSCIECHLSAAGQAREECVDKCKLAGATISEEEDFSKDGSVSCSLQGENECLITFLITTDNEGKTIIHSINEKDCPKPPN
Assay: Competitive integrin binding assay (isoDGR/STV-HRP) on αvβ6-coated plates
Settings: number in parenthesis
Where a SMILES comes first, the peptide text is derived from it. Bridges are numbered along the chain shown (N, C = ends). [ ]: non-standard residue; d: D form. The star is where a group is joined. X1 = NC(=O)C1CCC(CN2C(=O)CC(*)C2=O)CC1; X2 = O=C(O)C1CCC(CN2C(=O)CC(*)C2=O)CC1; dPhg = N[C@@H](C(=O)O)c1ccccc1
QUANTITY_MEASURED: ratio of integrin Ki/αvβ3 Ki (αvβ6)

• N=C(N)NCCC[C@@H]1NC(=O)CNC(=O)C[C@@H](C(=O)O)NC(=O)[C@H](CS)NC(=O)CNC1=O [isoDGR#2, c(CisoDGRG)] (GRGCD-OH; lactam N-5) = (1.9)
• N=C(N)NCCC[C@@H]1NC(=O)CNC(=O)C[C@@H](C(=O)O)NC(=O)CNC(=O)[C@H](CSC2CC(=O)N(CC3CCC(C(N)=O)CC3)C2=O)NC(=O)CNC1=O (some centres unmarked) [isoDGR#1-P1] (GRGC(X1)GD-OH; lactam N-6) = (17)
• N=C(N)NCCC[C@@H]1NC(=O)CNC(=O)C[C@@H](C(=O)O)NC(=O)CNC(=O)[C@H](CS)NC(=O)CNC1=O [isoDGR#1, c(CGisoDGRG)] (GRGCGD-OH; lactam N-6) = (14)
• N=C(N)NCCC[C@@H]1NC(=O)CNC(=O)C[C@@H](C(=O)O)NC(=O)[C@H](CS)NC(=O)CNC(=O)CNC1=O [isoDGR#3, c(CisoDGRGG)] (GRGGCD-OH; lactam N-6) = (1.3)
• N=C(N)NCCC[C@@H]1NC(=O)CNC(=O)C[C@@H](C(=O)O)NC(=O)CNC(=O)[C@H](CSC2CC(=O)N(CC3CCC(C(=O)O)CC3)C2=O)NC(=O)CNC1=O (some centres unmarked) [isoDGR#1-P2] (GRGC(X2)GD-OH; lactam N-6) = (80)
• N=C(N)NCCC[C@@H]1NC(=O)CNC(=O)C[C@@H](C(=O)O)NC(=O)[C@H](CSC2CC(=O)N(CC3CCC(C(=O)O)CC3)C2=O)NC(=O)CNC(=O)CNC1=O (stereo partly drawn) [isoDGR#3-P2] (GRGGC(X2)D-OH; lactam N-6) = (26)
• N=C(N)NCCC[C@@H]1NC(=O)CNC(=O)C[C@@H](C(=O)O)NC(=O)CNC(=O)[C@H](CS)NC(=O)[C@@H](c2ccccc2)NC1=O [isoDGR#5, c(CGisoDGRphg)] (GR[dPhg]CGD-OH; lactam N-6) = (3.7)
